system: DU-145 prostate; assay: NCI-60 one-dose screen, 48 h; conditions: 10 µM unless noted
This is part of a sample that, as a whole, favours compounds with a hit. Of some 83,000 tested, about 20% had one in any assay. Activity calls are given as the source filed them. How the source made its calls: active means growth percent below 10; inactive means the rest.
Select the correct class. Options are active, inactive and nothing else.

[Q] // outcome(item) with item = N#CN1CCC[C@H]1C(=O)N1CCc2c(-c3[nH]nc4ncccc34)cccc21
[A] active

[Q] // outcome(item) with item = COc1ccccc1Nc1nc(-c2cc3cccc(C(F)(F)F)c3oc2=O)cs1
[A] active

[Q] // outcome(item) with item = C#CCOc1ccc2ncnc(NCc3cccc(NC(=O)CCl)c3)c2c1
[A] inactive

[Q] // outcome(item) with item = Cc1cc(NS(=O)(=O)c2ccc(-c3cnc(C4CC4)o3)cc2)ccc1Cl
[A] inactive

[Q] // outcome(item) with item = CC(C)(C)N1CCC1CN (stereo not drawn)
[A] inactive

[Q] // outcome(item) with item = COc1cc2c(cc1O)CC[C@@H]1[C@@H]2CC[C@]2(C)[C@@H](OCCCN(C)C)CC[C@@H]12
[A] active

[Q] // outcome(item) with item = CCc1nc(N)nc(N)c1C#CC(C)c1ccc(-c2ccncc2)cc1Cl (stereo not drawn)
[A] inactive

[Q] // outcome(item) with item = CSc1ccc(SC2c3ccc(C)cc3Oc3nc(N)c(C#N)c(N)c32)cc1 (stereo not drawn)
[A] active

[Q] // outcome(item) with item = O=[N+]([O-])c1ccc2c(c1)Cc1cc(F)ccc1-2
[A] inactive

[Q] // outcome(item) with item = Cc1ccc2c(C(C[N+](=O)[O-])c3ccccc3F)c(-c3ccccc3)[nH]c2c1 (stereo not drawn)
[A] inactive

[Q] // outcome(item) with item = COc1cc(C(=O)/C=C/c2cccnc2Nc2ccc(Cl)cc2)cc(OC)c1OC
[A] active

[Q] // outcome(item) with item = O=c1c2c3c(sc2nc(N/N=C/c2cn(-c4ccccc4)nc2-c2ccc(Cl)cc2)n1Cc1ccccc1)CCCC3
[A] inactive

[Q] // outcome(item) with item = Cn1c(=O)c2c(nc3n(-c4ccc(Cl)cc4Cl)c(Sc4nc(-c5ccccc5)c(C#N)c(=O)[nH]4)cn23)n(C)c1=O
[A] inactive

[Q] // outcome(item) with item = COc1cccc2c1C(=O)c1c(O)c3c(c(O)c1C2=O)C[C@](O)(C(=O)CO)C[C@H]3O[C@@H]1C[C@@H](NC(=O)CCCCCN(C)C2(c3ccc(F)cc3)CC3CCC2C3)[C@H](O)[C@@H](C)O1 (stereo partly drawn)
[A] active

[Q] // outcome(item) with item = Cc1cc(N2CCN(c3ccnc4cc(Cl)ccc34)CC2)nc(N2CCOCC2)n1
[A] inactive

[Q] // outcome(item) with item = C=C(C)C1CC(O)C2(C)CCCC3C2C1CC(C)C3(C)CC/C(C)=C/C(O)C1CCC(=O)c2c(OC)cc(OC)cc21 (stereo not drawn)
[A] inactive

[Q] // outcome(item) with item = CC(=O)c1cc2c(N)c(C(=O)Nc3ccccc3)sc2nc1C
[A] inactive

[Q] // outcome(item) with item = Cc1ccc(NS(=O)(=O)c2ccc(-c3cnc(C4CC4)o3)cc2)cc1C
[A] inactive

---

test system: NCI/ADR-RES ovarian; test: NCI-60 one-dose screen, 48 h (100 = growth as untreated, 0 = no growth, -100 = all killed); details: 10 µM unless noted
Compounds without any hit were thinned out: in the full panel of roughly 83,000, 20% have a hit. Calls of active or inactive are those of the source. How the source made its calls: active means growth percent below 10; inactive means the rest.
So I've got a bunch of compounds here, and I need their growth values.

[Q] # query: growth | item COc1cccc(-c2nc(SCC(=O)Nc3ccc(C(=O)/C=C/c4ccc(OC)c(OC)c4)cc3)[nH]c(=O)c2C#N)c1 | system: NCI/ADR-RES ovarian
[A] 93.6% (inactive)

[Q] # query: growth | item CC(O)CN(CC(C)O)c1ccc2c(c1)Cc1cc([N+](=O)[O-])ccc1-2 (stereo not given) | system: NCI/ADR-RES ovarian
[A] 92.9% (inactive)

[Q] # query: growth | item COc1ccc(-c2nn(-c3ccc(Cl)cc3)cc2-c2nc3ccccc3[nH]2)cc1 | system: NCI/ADR-RES ovarian
[A] 102% (inactive)

[Q] # query: growth | item COc1cc2c(cc1-c1c(C)noc1C)ncc1nc(C3CCCC3)n([C@H](C)COC(F)F)c12 | system: NCI/ADR-RES ovarian
[A] 35.5% (inactive)

[Q] # query: growth | item C=C1c2nc3ccccc3n2C=C(c2ccc(OC)cc2)N1Cc1ccccc1 | system: NCI/ADR-RES ovarian
[A] 77.4% (inactive)

Numbers sourced from PubChem BioAssay (NCI).
